// pIC50 lookup, one value per entry
Tested on: T-47D spheroids with HUVEC/MSC, viability
protocol: Anticancer human tumor T-47D cell line growth inhibition [PI3K];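 further: spheroids exposed to agents for seven days before reading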
experimental-context: curve of first compound; second compound 0.0316 µM
pIC50: −log10 of the molar value.
readout-kind: pIC50

CC(C)n1nc(-c2ccc3oc(N)nc3c2)c2c(N)ncnc21 + Cc1nc(NC(=O)N2CCCC2C(N)=O)sc1-c1ccnc(C(C)(C)C(F)(F)F)c1
7.14
C=CC(=O)N1CCN(c2nc(=O)n(-c3c(C)ccnc3C(C)C)c3nc(-c4c(O)cccc4F)c(F)cc23)C(C)C1 (stereo unspecified) + COc1c(OCCCN2CCOCC2)ccc2c3n(c(=NC(=O)c4cnc(N)nc4)nc12)CCN3
< 5.00
Cn1cnc2c(F)c(Nc3ccc(Br)cc3Cl)c(C(=O)NOCCO)cc21 + COc1c(OCCCN2CCOCC2)ccc2c3n(c(=NC(=O)c4cnc(N)nc4)nc12)CCN3
< 5.52
CC1(C)CCC(Nc2ncc(C(F)(F)F)c(-c3c[nH]c4c(P(C)(C)=O)c(C#N)ccc34)n2)CN1 (stereo unspecified) + COc1c(OCCCN2CCOCC2)ccc2c3n(c(=NC(=O)c4cnc(N)nc4)nc12)CCN3
> 7.50
C[C@@H](NC(=O)c1ncnc(N)c1Cl)c1ncc(C(=O)Nc2cc(C(F)(F)F)c(Cl)cn2)s1 + CC(Nc1ccc2c(c1)OCCn1cc(N3C(=O)OCC3C(F)F)nc1-2)C(N)=O
< 5.00
CC1(C)CCC(Nc2ncc(C(F)(F)F)c(-c3c[nH]c4c(P(C)(C)=O)c(C#N)ccc34)n2)CN1 (stereo unspecified) + CC(Nc1ccc2c(c1)OCCn1cc(N3C(=O)OCC3C(F)F)nc1-2)C(N)=O
5.23
Cn1ncnc1[C@H]1c2n[nH]c(=O)c3cc(F)cc(c23)N[C@@H]1c1ccc(F)cc1 + Cc1nc(NC(=O)N2CCCC2C(N)=O)sc1-c1ccnc(C(C)(C)C(F)(F)F)c1
< 7.00
Cn1ncc(Cl)c1-c1cc(C(=O)NC(CN)Cc2cccc(F)c2)sc1Cl (stereo unspecified) + COc1c(OCCCN2CCOCC2)ccc2c3n(c(=NC(=O)c4cnc(N)nc4)nc12)CCN3
< 5.00
C[C@@H](NC(=O)c1ncnc(N)c1Cl)c1ncc(C(=O)Nc2cc(C(F)(F)F)c(Cl)cn2)s1 + COc1c(OCCCN2CCOCC2)ccc2c3n(c(=NC(=O)c4cnc(N)nc4)nc12)CCN3
< 5.00
C=CC(=O)N1CCN(c2nc(=O)n(-c3c(C)ccnc3C(C)C)c3nc(-c4c(O)cccc4F)c(F)cc23)C(C)C1 (stereo unspecified) + CC(Nc1ncnc2nc[nH]c12)c1cc2cccc(Cl)c2c(=O)n1-c1ccccc1
< 5.00
CC1(C)CCC(CN2CCN(c3ccc(C(=O)NS(=O)(=O)c4ccc(NCC5CCOCC5)c([N+](=O)[O-])c4)c(Oc4cnc5[nH]ccc5c4)c3)CC2)=C(c2ccc(Cl)cc2)C1 + CC(Nc1ncnc2nc[nH]c12)c1cc2cccc(Cl)c2c(=O)n1-c1ccccc1
< 5.00
CCN1CCN(Cc2ccc(Nc3ncc(F)c(-c4cc(F)c5nc(C)n(C(C)C)c5c4)n3)nc2)CC1 + CC(Nc1ccc2c(c1)OCCn1cc(N3C(=O)OCC3C(F)F)nc1-2)C(N)=O
< 6.00
CC(Cn1ccc(-c2ccc(C#N)c(Cl)c2)n1)NC(=O)c1cc(C(C)O)[nH]n1 (stereo unspecified) + CC(Nc1ccc2c(c1)OCCn1cc(N3C(=O)OCC3C(F)F)nc1-2)C(N)=O
< 5.00
CCN1CCN(Cc2ccc(Nc3ncc(F)c(-c4cc(F)c5nc(C)n(C(C)C)c5c4)n3)nc2)CC1 + COc1c(OCCCN2CCOCC2)ccc2c3n(c(=NC(=O)c4cnc(N)nc4)nc12)CCN3
8.08
Cn1nccc1Nc1nccc(-c2ccn(C(CO)c3ccc(Cl)c(F)c3)c(=O)c2)n1 (stereo unspecified) + Cc1nc(NC(=O)N2CCCC2C(N)=O)sc1-c1ccnc(C(C)(C)C(F)(F)F)c1
< 5.00
Cn1cnc2c(F)c(Nc3ccc(Br)cc3Cl)c(C(=O)NOCCO)cc21 + CC(Nc1ncnc2nc[nH]c12)c1cc2cccc(Cl)c2c(=O)n1-c1ccccc1
< 5.52

###

Tested on: T-47D spheroids with HUVEC/MSC, viability
protocol: Anticancer human tumor T-47D cell line growth inhibition [PI3K];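 further: spheroids exposed to agents for seven days before reading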
experimental-context: curve of first compound; second compound 0.0316 µM
pIC50: −log10 of the molar value.
// pIC50 lookup, one value per entry
readout-kind: pIC50

Cn1nccc1Nc1nccc(-c2ccn(C(CO)c3ccc(Cl)c(F)c3)c(=O)c2)n1 (stereo not given) + COc1c(OCCCN2CCOCC2)ccc2c3n(c(=NC(=O)c4cnc(N)nc4)nc12)CCN3
< 5.00
Cn1ncc(Cl)c1-c1cc(C(=O)NC(CN)Cc2cccc(F)c2)sc1Cl (stereo not given) + CC(Nc1ncnc2nc[nH]c12)c1cc2cccc(Cl)c2c(=O)n1-c1ccccc1
< 5.00
C#Cc1c(F)ccc2cc(O)cc(-c3ncc4c(N5CC6CCC(C5)N6)nc(OCC56CCCN5CC(F)C6)nc4c3F)c12 (stereo not given) + Cc1nc(NC(=O)N2CCCC2C(N)=O)sc1-c1ccnc(C(C)(C)C(F)(F)F)c1
< 5.00
Cn1cnc2c(F)c(Nc3ccc(Br)cc3Cl)c(C(=O)NOCCO)cc21 + Cc1nc(NC(=O)N2CCCC2C(N)=O)sc1-c1ccnc(C(C)(C)C(F)(F)F)c1
< 5.52
C=CC(=O)N1CCN(c2nc(=O)n(-c3c(C)ccnc3C(C)C)c3nc(-c4c(O)cccc4F)c(F)cc23)C(C)C1 (stereo not given) + CC(Nc1ccc2c(c1)OCCn1cc(N3C(=O)OCC3C(F)F)nc1-2)C(N)=O
< 5.00

###

Test system: T-47D spheroids with HUVEC/MSC, viability
protocol: Anticancer human tumor T-47D cell line growth inhibition [PI3K]; active means viability on the fitted dose curve at most 10% of control; inactive means the rest;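 further: spheroids exposed to agents for seven days before reading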
experimental-context: second compound 1 µM; first compound 0.1 µM
Outcomes: 1.0 = active, 0.0 = inactive

C=CC(=O)N1CCN(c2nc(=O)n(-c3c(C)ccnc3C(C)C)c3nc(-c4c(O)cccc4F)c(F)cc23)C(C)C1 (stereo not given) + Cc1nc(NC(=O)N2CCCC2C(N)=O)sc1-c1ccnc(C(C)(C)C(F)(F)F)c1
0.0
CC1(C)CCC(Nc2ncc(C(F)(F)F)c(-c3c[nH]c4c(P(C)(C)=O)c(C#N)ccc34)n2)CN1 (stereo not given) + COc1c(OCCCN2CCOCC2)ccc2c3n(c(=NC(=O)c4cnc(N)nc4)nc12)CCN3
1.0
CNC(=O)c1ccc(N2C(=S)N(c3ccc(C#N)c(C(F)(F)F)c3)C(=O)C2(C)C)cc1F + Cc1nc(NC(=O)N2CCCC2C(N)=O)sc1-c1ccnc(C(C)(C)C(F)(F)F)c1
0.0
CC(C)n1nc(-c2ccc3oc(N)nc3c2)c2c(N)ncnc21 + COc1c(OCCCN2CCOCC2)ccc2c3n(c(=NC(=O)c4cnc(N)nc4)nc12)CCN3
1.0
CCN1CCN(Cc2ccc(Nc3ncc(F)c(-c4cc(F)c5nc(C)n(C(C)C)c5c4)n3)nc2)CC1 + COc1c(OCCCN2CCOCC2)ccc2c3n(c(=NC(=O)c4cnc(N)nc4)nc12)CCN3
0.0

###

Tested on: T-47D spheroids with HUVEC/MSC, viability
protocol: Anticancer human tumor T-47D cell line growth inhibition [PI3K];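 further: spheroids exposed to agents for seven days before reading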;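 on viability, T/C: percent of DMSO vehicle control luminescence so 100% = untreated growth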
experimental-context: second compound 0.1 µM; first compound 1 µM; stronger effect = lower value
readout-kind: viability, T/C (%)

C#Cc1c(F)ccc2cc(O)cc(-c3ncc4c(N5CC6CCC(C5)N6)nc(OCC56CCCN5CC(F)C6)nc4c3F)c12 (stereo not drawn) + Cc1nc(NC(=O)N2CCCC2C(N)=O)sc1-c1ccnc(C(C)(C)C(F)(F)F)c1
80.1
CC(Cn1ccc(-c2ccc(C#N)c(Cl)c2)n1)NC(=O)c1cc(C(C)O)[nH]n1 (stereo not drawn) + CC(Nc1ncnc2nc[nH]c12)c1cc2cccc(Cl)c2c(=O)n1-c1ccccc1
82.3
C=CC(=O)N1CCN(c2nc(=O)n(-c3c(C)ccnc3C(C)C)c3nc(-c4c(O)cccc4F)c(F)cc23)C(C)C1 (stereo not drawn) + Cc1nc(NC(=O)N2CCCC2C(N)=O)sc1-c1ccnc(C(C)(C)C(F)(F)F)c1
77.8

###

Test system: T-47D spheroids with HUVEC/MSC, viability
protocol: Anticancer human tumor T-47D cell line growth inhibition [PI3K];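 further: spheroids exposed to agents for seven days before reading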;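 on viability, T/C: percent of DMSO vehicle control luminescence so 100% = untreated growth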
experimental-context: second compound 0.00316 µM; first compound 10 µM; stronger effect = lower value
// boundary case: viability, T/C equal to 90% maps to not fulfilled; strictly smaller maps to fulfilled

C[C@@H](NC(=O)c1ncnc(N)c1Cl)c1ncc(C(=O)Nc2cc(C(F)(F)F)c(Cl)cn2)s1 + COc1c(OCCCN2CCOCC2)ccc2c3n(c(=NC(=O)c4cnc(N)nc4)nc12)CCN3
fulfilled
CC1(C)CCC(Nc2ncc(C(F)(F)F)c(-c3c[nH]c4c(P(C)(C)=O)c(C#N)ccc34)n2)CN1 (stereo unspecified) + COc1c(OCCCN2CCOCC2)ccc2c3n(c(=NC(=O)c4cnc(N)nc4)nc12)CCN3
fulfilled
C#Cc1c(F)ccc2cc(O)cc(-c3ncc4c(N5CC6CCC(C5)N6)nc(OCC56CCCN5CC(F)C6)nc4c3F)c12 (stereo unspecified) + CC(Nc1ccc2c(c1)OCCn1cc(N3C(=O)OCC3C(F)F)nc1-2)C(N)=O
fulfilled
CC1(C)CCC(CN2CCN(c3ccc(C(=O)NS(=O)(=O)c4ccc(NCC5CCOCC5)c([N+](=O)[O-])c4)c(Oc4cnc5[nH]ccc5c4)c3)CC2)=C(c2ccc(Cl)cc2)C1 + COc1c(OCCCN2CCOCC2)ccc2c3n(c(=NC(=O)c4cnc(N)nc4)nc12)CCN3
not fulfilled
Cn1nccc1Nc1nccc(-c2ccn(C(CO)c3ccc(Cl)c(F)c3)c(=O)c2)n1 (stereo unspecified) + COc1c(OCCCN2CCOCC2)ccc2c3n(c(=NC(=O)c4cnc(N)nc4)nc12)CCN3
not fulfilled
CC(C)NCC(C(=O)N1CCN(c2ncnc3c2C(C)CC3O)CC1)c1ccc(Cl)cc1 (stereo unspecified) + CC(Nc1ccc2c(c1)OCCn1cc(N3C(=O)OCC3C(F)F)nc1-2)C(N)=O
fulfilled
CC(Cn1ccc(-c2ccc(C#N)c(Cl)c2)n1)NC(=O)c1cc(C(C)O)[nH]n1 (stereo unspecified) + COc1c(OCCCN2CCOCC2)ccc2c3n(c(=NC(=O)c4cnc(N)nc4)nc12)CCN3
fulfilled
Cn1ncc(Cl)c1-c1cc(C(=O)NC(CN)Cc2cccc(F)c2)sc1Cl (stereo unspecified) + COc1c(OCCCN2CCOCC2)ccc2c3n(c(=NC(=O)c4cnc(N)nc4)nc12)CCN3
fulfilled
C=CC(=O)N1CCN(c2nc(=O)n(-c3c(C)ccnc3C(C)C)c3nc(-c4c(O)cccc4F)c(F)cc23)C(C)C1 (stereo unspecified) + CC(Nc1ccc2c(c1)OCCn1cc(N3C(=O)OCC3C(F)F)nc1-2)C(N)=O
not fulfilled
C=CC(=O)N1CCN(c2nc(=O)n(-c3c(C)ccnc3C(C)C)c3nc(-c4c(O)cccc4F)c(F)cc23)C(C)C1 (stereo unspecified) + COc1c(OCCCN2CCOCC2)ccc2c3n(c(=NC(=O)c4cnc(N)nc4)nc12)CCN3
not fulfilled
